Molecular target: BRAF G469A (Homo sapiens, UniProt P15056, G469A)
Construct: Horizon Discovery (HCT-116 BRAF−/− cells); host or cells: HCT-116 BRAF−/− cells, clone 34, lentiviral transduction
Sequence (P15056 whole entry G469A): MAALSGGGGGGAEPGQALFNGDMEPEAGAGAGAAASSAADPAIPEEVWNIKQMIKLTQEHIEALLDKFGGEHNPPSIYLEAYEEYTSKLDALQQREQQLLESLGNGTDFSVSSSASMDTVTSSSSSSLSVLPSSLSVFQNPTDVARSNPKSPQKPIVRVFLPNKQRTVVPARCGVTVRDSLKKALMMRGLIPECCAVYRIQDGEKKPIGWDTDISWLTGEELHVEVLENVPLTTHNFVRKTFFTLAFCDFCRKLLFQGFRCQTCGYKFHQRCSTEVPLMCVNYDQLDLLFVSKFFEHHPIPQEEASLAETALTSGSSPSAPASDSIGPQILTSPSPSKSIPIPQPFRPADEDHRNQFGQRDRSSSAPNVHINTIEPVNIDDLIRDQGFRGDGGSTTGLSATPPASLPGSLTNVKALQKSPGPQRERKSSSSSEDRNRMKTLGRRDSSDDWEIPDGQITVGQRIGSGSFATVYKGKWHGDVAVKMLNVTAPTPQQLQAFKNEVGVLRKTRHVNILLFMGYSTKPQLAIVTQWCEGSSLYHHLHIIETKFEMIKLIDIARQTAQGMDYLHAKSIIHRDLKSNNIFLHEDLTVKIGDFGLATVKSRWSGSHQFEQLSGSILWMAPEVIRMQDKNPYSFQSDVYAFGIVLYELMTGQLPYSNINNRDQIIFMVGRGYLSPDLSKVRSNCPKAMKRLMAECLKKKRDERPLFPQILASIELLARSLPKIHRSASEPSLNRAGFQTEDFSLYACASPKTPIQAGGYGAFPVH
Experiment: BRAF HiBiT degradation assay, C-terminal HiBiT-tagged BRAF G469A overexpressed in HCT-116 BRAF−/− cells (clone 34), Nano-Glo HiBiT Lytic assay
Type: cell-based
Settings: BRAF G469A (Class 2), HCT-116 BRAF−/− cells; observed Dmax relative to DMSO control

COMPOUND: O=C1CCN(c2ccc(N3CCC(CN4CCN(c5ccc(-n6cc(-c7cc(F)cc(NS(=O)(=O)N8CCCC8)c7F)c(-c7ccncc7)n6)cc5)CC4)CC3)cc2)C(=O)N1 [Compound 300]
MEASUREMENT_TARGET: BRAF G469A (Homo sapiens, UniProt P15056, G469A)
Dmax: 30 to 70%
//
COMPOUND: CCN(C)S(=O)(=O)Nc1cc(F)cc(-c2cn(-c3ccc(N4CCN(CC5CCN(c6ccc([C@H]7CCC(=O)NC7=O)cc6)CC5)CC4)cc3)nc2-c2ccncc2)c1F [Compound 377]
MEASUREMENT_TARGET: BRAF G469A (Homo sapiens, UniProt P15056, G469A)
Dmax: 30 to 70%
//
COMPOUND: O=C1CC[C@H](c2ccc(N3CCC(CN4CCN(c5ccc(-n6cc(-c7cc(Cl)cc(NS(=O)(=O)N8CCCC8)c7F)c(-c7ccncc7)n6)nc5)CC4)CC3)cc2)C(=O)N1 [Compound 286]
MEASUREMENT_TARGET: BRAF G469A (Homo sapiens, UniProt P15056, G469A)
Dmax: 30 to 70%
//
COMPOUND: CCCS(=O)(=O)Nc1cccc(-c2nc(C3CCC4(CC3)CCN(C[C@H]3CC[C@H](Oc5ccc(C6CCC(=O)NC6=O)cn5)CC3)CC4)sc2-c2ccnc(N)n2)c1F (mixture of isomers) [Compound 257]
MEASUREMENT_TARGET: BRAF G469A (Homo sapiens, UniProt P15056, G469A)
Dmax: < 30%
//
COMPOUND: CCCS(=O)(=O)Nc1cccc(-c2nc(C3CCC4(CC3)CCN(C(=O)C3CCN(c5ccc(C6CCC(=O)NC6=O)cn5)CC3)CC4)sc2-c2ccnc(N)n2)c1F (racemic) [Compound 246]
MEASUREMENT_TARGET: BRAF G469A (Homo sapiens, UniProt P15056, G469A)
Dmax: < 30%
